Values from patent US20260364080A1

// reported pEC50 for each item listed
# System Name: Wee1A kinase (CDK1 Tyr15 phosphorylation in ACHN renal cell carcinoma cells) (Homo sapiens)
# Construct: pCDK1 Tyr15 immunofluorescence read-out
# Sequence (P30291 whole entry): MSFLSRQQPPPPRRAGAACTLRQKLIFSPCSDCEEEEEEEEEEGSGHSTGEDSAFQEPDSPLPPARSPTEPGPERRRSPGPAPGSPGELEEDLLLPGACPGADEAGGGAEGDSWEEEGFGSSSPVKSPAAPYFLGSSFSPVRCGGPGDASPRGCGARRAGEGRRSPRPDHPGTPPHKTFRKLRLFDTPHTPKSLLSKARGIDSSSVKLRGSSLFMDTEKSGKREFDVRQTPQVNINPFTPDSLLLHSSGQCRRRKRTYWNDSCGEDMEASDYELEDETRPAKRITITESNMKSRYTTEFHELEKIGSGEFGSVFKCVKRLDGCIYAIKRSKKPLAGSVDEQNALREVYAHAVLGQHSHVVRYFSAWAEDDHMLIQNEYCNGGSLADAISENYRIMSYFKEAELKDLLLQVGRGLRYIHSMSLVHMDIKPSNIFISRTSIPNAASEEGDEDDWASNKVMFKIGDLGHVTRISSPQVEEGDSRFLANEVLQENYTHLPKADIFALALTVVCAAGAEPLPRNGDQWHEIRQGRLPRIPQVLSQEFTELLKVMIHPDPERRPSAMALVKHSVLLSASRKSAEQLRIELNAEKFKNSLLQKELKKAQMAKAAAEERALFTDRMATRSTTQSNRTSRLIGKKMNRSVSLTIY
# Assay Name: High-content imaging of pCdk1 Y15, Wee1A kinase target engagement in ACHN cells
# Type: cell-based
# Study Conditions: 4 h treatment, nuclear positivity for pCdk1 Y15 vs DMSO control, read-out: CDK1 Tyr15 Phosphorylation EC50
pEC50: −log10 of the molar value.

Guide cases for pEC50, answers given:
C=CCn1c(=O)c2cnc(Nc3ccc4[nH]nc(C)c4c3)nc2n1-c1cccc(OC2CCNCC2)n1 [Compound 345]	6.00 to 6.30
C=CCn1c(=O)c2cnc(Nc3cccc(C)c3)nc2n1-c1cccc(NC2CCN(C)CC2)n1 [Compound 188]	> 7.00
C=CCn1c(=O)c2cnc(Nc3ccc4cccnc4c3)nc2n1-c1cccc(OC2CCN(C)CC2)n1 [Compound 335]	> 7.00
C=CCn1c(=O)c2cnc(Nc3ccc4c(c3)ncn4C)nc2n1-c1cccc(OC2CCNCC2)n1 [Compound 319]	6.30 to 7.00
C=CCn1c(=O)c2cnc(Nc3ccc4ccncc4c3)nc2n1-c1cccc(OC2CCNCC2)n1 [Compound 240]	6.30 to 7.00

Ask: What value of pEC50 has been reported for the following compound? C=CCn1c(=O)c2cnc(Nc3cnc4c(cnn4C(C)C)c3)nc2n1-c1cccc(OC2CCN(C)CC2)n1 [Compound 406]
Result: > 7.00
